- procedureSummary: GFP drop in mixed WT/humanized-ribosome E. coli culture – GFP/RFP fluorescence, OD600, single point, bacterial rRNA inhibitor project, primary screen (AID 720706)
- particulars: E. coli WT GFP vs humanized-ribosome RFP mutants, 24 h; stronger effect = lower value, DMSO median 0, no signal -100
About 5,500 (1.6%) of roughly 350,000 compounds were called active. What follows is part of a selection rich in actives, with near analogues and random picks from the rest.
Recorded GFP signal change (wild-type ribosome) for the following molecules
quantityKind: GFP signal change (wild-type ribosome) (%)

INSERT INTO assay_data (molecule, recordedresult) VALUES
  ('CC(=O)Nc1ccc(C=CC(=O)c2ccc([N+](=O)[O-])cc2)cc1', 5.97),
  ('Cc1nn(-c2ccccc2)c(C)c1/C=C/C(=O)OC(C)C(N)=O (stereo unspecified)', 0.439),
  ('CCC(=O)N1[C@@H](CO)[C@@H](c2ccccc2)C12CN(C(=O)Cc1ccccc1)C2', 2.16),
  ('Cc1ccccc1NC(=S)NC(=O)Cc1ccc(Cl)cc1', -31.6),
  ('CC(C)NC(=O)Nc1ccc2c(c1)C(=O)N([C@H](C)CO)C[C@@H](C)[C@H](CN(C)S(C)(=O)=O)O2', 0.569),
  ('Cc1ccc(S(=O)(=O)N(C)C[C@@H]2Oc3c(NS(=O)(=O)c4ccc(F)cc4)cccc3C(=O)N([C@@H](C)CO)C[C@H]2C)cc1', -1.93),
  ('CCC(C)CN1C(=O)CN(S(C)(=O)=O)CC1(C)C(=O)Nc1ccc2c(c1)OCCO2 (stereo unspecified)', 11.4),
  ('CC(C)NC(=O)N(C)C[C@H]1OCCCC[C@H](C)Oc2ccc(NC(=O)CCCN(C)C)cc2C(=O)N([C@@H](C)CO)C[C@H]1C', 3.73),
  ('C[C@@H]1CN([C@H](C)CO)C(=O)c2cc(-c3cncnc3)cnc2O[C@@H]1CN(C)Cc1ccc(Oc2ccccc2)cc1', 1.64),
  ('O=C(/C=C/c1ccc(Cl)cc1)N1CCN(c2ccccc2[N+](=O)[O-])CC1', -31),
  ('C[C@@H]1CCCCO[C@H](CN(C)Cc2ccc(C(=O)Nc3ccccc3N)cc2)[C@H](C)CN([C@H](C)CO)C(=O)c2cc(N(C)C)ccc2O1', 4.58),
  ('Cc1ccccc1CN1C(=O)CSCC1(C)C(=O)Nc1c(C)cccc1C (stereo unspecified)', -3.76),
  ('C[C@@H]1CN([C@H](C)CO)C(=O)c2cc(NC(=O)CCN3CCOCC3)ccc2O[C@H]1CN(C)Cc1ccc(Oc2ccccc2)cc1', -0.524),
  ('COc1cccc(CNC(=O)[C@@H]2[C@@H](CO)[C@@H]3Cn4c(ccc(-c5ccncc5)c4=O)[C@H]2N3C(C)=O)c1', 2.73),
  ('C[C@H](CO)N1C[C@H](C)[C@H](CN(C)C(=O)Nc2ccc(C(F)(F)F)cc2)Oc2ccc(NS(=O)(=O)c3ccccc3)cc2CC1=O', 2.52),
  ('CC(CC(=O)O)C(=O)c1ccc(Cl)c([N+](=O)[O-])c1 (stereo unspecified)', 10.7),
  ('CC(C)c1ccc(NC(=S)NC2CC3C=CC2C3)cc1 (stereo unspecified)', -37.3),
  ('O=C(Cc1ccc(Cl)cc1)NC(=S)Nc1ccccc1O', 6.71),
  ('COc1cccc(S(=O)(=O)N2C[C@@H](O)COC[C@H]3O[C@@H](CC(=O)N4CCOCC4)CC[C@@H]32)c1', 0.378),
  ('O=C(/C=C/c1ccc2c(c1)OCCO2)c1ccc(O)cc1', -19.8),
  ('Cc1cccc(NC(=S)NCCc2ccc(Cl)cc2)c1C', -5.8),
  ('Cn1cnc(S(=O)(=O)N2C[C@@H](O)COC[C@H]3O[C@H](CC(=O)N4CCN(c5ccccc5)CC4)CC[C@@H]32)c1', 9.71),
  ('CC(C)NC(=O)N(C)C[C@@H]1OCc2ccccc2-c2c(n(C)c3ccccc23)C(=O)N([C@@H](C)CO)C[C@H]1C', 1.88),
  ('CC1(C(=O)Nc2ccc3c(c2)OCCO3)CSCC(=O)N1CCOc1ccccc1 (stereo unspecified)', -19.5),
  ('O=C(COC(=O)c1ccc(O)cc1O)c1ccc2c(c1)OCCO2', -13.2),
  ('C[C@@H]1CN([C@H](C)CO)C(=O)c2cc(NC(=O)C3CCCCC3)ccc2O[C@@H](C)CCCCO[C@H]1CN(C)S(C)(=O)=O', -1.08),
  ('CO[C@H]1CN(C)C(=O)c2ccc(NC(=O)CC(F)(F)F)cc2OC[C@@H](C)N(C(=O)c2ccccc2F)C[C@@H]1C', 3.23),
  ('COc1ccc(OC)c(/C=C/C(=O)c2ccc3c(c2)OCO3)c1', 0.015),
  ('C[C@@H]1CN([C@@H](C)CO)C(=O)c2cc(N(C)C)ccc2O[C@@H](C)CCCCO[C@@H]1CN(C)C(=O)CCC(F)(F)F', -1.52),
  ('O=C1CN(Cc2ccccc2)C[C@H]2[C@H](c3ccc(-c4ccccc4)cc3)[C@@H](CO)N12', 4.87),
  ('S=C(NNC(=S)NC1CC2C=CC1C2)NC1CC2C=CC1C2 (stereo unspecified)', -47.5),
  ('O=C(CC1CC1)N1CC(=O)N2[C@H](CO)[C@H](c3ccc(C#Cc4ccc(F)cc4)cc3)[C@@H]2C1', -21.5),
  ('COc1cccc(CNC(=O)C2CCCN(c3ncnc4c3nc3n4CCCCC3)C2)c1 (stereo unspecified)', -0.749),
  ('COc1cccc(NC(=O)C2CCCN(c3ncnc4c3nc3n4CCCCC3)C2)c1 (stereo unspecified)', -27.7),
  ('CN(Cc1ccccc1)C(=O)C1CCCN(c2ncnc3c2nc2n3CCCCC2)C1 (stereo unspecified)', -30.8),
  ('O=C(Nc1ccccc1F)N[C@H]1CC[C@@H](CCNS(=O)(=O)c2ccc(F)cc2)O[C@@H]1CO', 0.53);
